experiment: Steady state pharmacokinetics, 3 treatments of 4 days: Asacol 800 mg BID, granulated mesalamine formulation 800 mg BID and 1600 mg QD; format: in vivo, human; settings: human, plasma, oral, 800 mg, AUC, AUCC, Day 4, after Asacol 800 mg BID; converted from μmol * h/L

Compound	AUC (ng·h/mL)
CC(=O)Nc1ccc(O)c(C(=O)O)c1 [N-Ac-5-ASA, N-acetyl-5-aminosalicylic acid]	30700

====

Catalogue of compounds with associated AUC
assay: Steady state pharmacokinetics, 3 treatments of 4 days: Asacol 800 mg BID, granulated mesalamine formulation 800 mg BID and 1600 mg QD; type: in vivo, human; settings: human, plasma, oral, 800 mg, AUCC, Day 4, after Treatment B MP 800 mg BID; mean ± SD; read-out: AUC

Smiles Input	AUC, µM·h
Nc1ccc(O)c(C(=O)O)c1	97
CC(=O)Nc1ccc(O)c(C(=O)O)c1	238

====

Documented Cmax across a set of compounds
assay: Steady state pharmacokinetics, 3 treatments of 4 days: Asacol 800 mg BID, granulated mesalamine formulation 800 mg BID and 1600 mg QD; format: in vivo, human; conditions: human, plasma, oral, 800 mg, Day 4, after Asacol 800 mg BID; converted from μmol/L; mean ± SD

Compound	Cmax
CC(=O)Nc1ccc(O)c(C(=O)O)c1 [N-Ac-5-ASA, N-acetyl-5-aminosalicylic acid]	2340 ng/mL
Nc1ccc(O)c(C(=O)O)c1 [Mesalamine (5-ASA), 5-aminosalicylic acid]	1060 ng/mL

====

test: Single and multiple oral dose pharmacokinetics of 1.5 g granulated mesalamine formulation, crossover, healthy subjects, fasting; conditions: human, plasma, oral, 1.5 g, AUC0-24, plasma; single dose 1.5 g granulated mesalamine formulation, fasting, n = 24; mean ±SD
Measured Property: AUC(0-t) (ng·h/mL)

Molecule	Readout Units	Observed Measurement
CC(=O)Nc1ccc(O)c(C(=O)O)c1 [N-Ac-5-ASA, N-acetyl-5-aminosalicylic acid]	ng·h/mL	26000

====

test: Steady state pharmacokinetics, 3 treatments of 4 days: Asacol 800 mg BID, granulated mesalamine formulation 800 mg BID and 1600 mg QD; type: in vivo, human; conditions: human, plasma, oral, 800 mg, AUCC, Day 4, after MP 800 mg BID; converted from μmol * h/L; read-out: AUC
Measured Property: AUC (ng·h/mL)

Smiles Input	Observed Measurement
CC(=O)Nc1ccc(O)c(C(=O)O)c1	46400
Nc1ccc(O)c(C(=O)O)c1	14800

====

experiment: Steady state pharmacokinetics, 3 treatments of 4 days: Asacol 800 mg BID, granulated mesalamine formulation 800 mg BID and 1600 mg QD; assay type: in vivo, human; conditions: human, plasma, oral, 800 mg, Day 4, after MP 800 mg BID; converted from μmol/L; mean ± SD

Smiles Input	Cmax
CC(=O)Nc1ccc(O)c(C(=O)O)c1	3610 ng/mL
Nc1ccc(O)c(C(=O)O)c1	1820 ng/mL

====

assay: Steady state pharmacokinetics, 3 treatments of 4 days: Asacol 800 mg BID, granulated mesalamine formulation 800 mg BID and 1600 mg QD; assay type: in vivo, human; conditions: human, plasma, oral; Day 4, after MP 800 mg BID; median (range); time from first dose; read-out: Tmax
Measured Property: Tmax (h)

Smiles Input	Measured Property	Readout Units	Observed Measurement
Nc1ccc(O)c(C(=O)O)c1	Tmax	h	16
CC(=O)Nc1ccc(O)c(C(=O)O)c1	Tmax	h	16
